target: BaF3 (EGFR/D770insSVD) (Homo sapiens, UniProt P00533, DUP768-770, cells depend on it); construct: Test 13 IC50 (nM); other: BaF3 (EGFR/D770insSVD), 72 hours, Cell Titer-Glo; experiment: Test 13: EGFR exon 20 inserted D770insSVD cell proliferation test; type: cell-based; settings: BaF3 (EGFR/D770insSVD), 72 hours, Cell Titer-Glo; read-out: Test 13 IC50
Sequence (P00533 with tags, fused parts or gaps DUP768-770): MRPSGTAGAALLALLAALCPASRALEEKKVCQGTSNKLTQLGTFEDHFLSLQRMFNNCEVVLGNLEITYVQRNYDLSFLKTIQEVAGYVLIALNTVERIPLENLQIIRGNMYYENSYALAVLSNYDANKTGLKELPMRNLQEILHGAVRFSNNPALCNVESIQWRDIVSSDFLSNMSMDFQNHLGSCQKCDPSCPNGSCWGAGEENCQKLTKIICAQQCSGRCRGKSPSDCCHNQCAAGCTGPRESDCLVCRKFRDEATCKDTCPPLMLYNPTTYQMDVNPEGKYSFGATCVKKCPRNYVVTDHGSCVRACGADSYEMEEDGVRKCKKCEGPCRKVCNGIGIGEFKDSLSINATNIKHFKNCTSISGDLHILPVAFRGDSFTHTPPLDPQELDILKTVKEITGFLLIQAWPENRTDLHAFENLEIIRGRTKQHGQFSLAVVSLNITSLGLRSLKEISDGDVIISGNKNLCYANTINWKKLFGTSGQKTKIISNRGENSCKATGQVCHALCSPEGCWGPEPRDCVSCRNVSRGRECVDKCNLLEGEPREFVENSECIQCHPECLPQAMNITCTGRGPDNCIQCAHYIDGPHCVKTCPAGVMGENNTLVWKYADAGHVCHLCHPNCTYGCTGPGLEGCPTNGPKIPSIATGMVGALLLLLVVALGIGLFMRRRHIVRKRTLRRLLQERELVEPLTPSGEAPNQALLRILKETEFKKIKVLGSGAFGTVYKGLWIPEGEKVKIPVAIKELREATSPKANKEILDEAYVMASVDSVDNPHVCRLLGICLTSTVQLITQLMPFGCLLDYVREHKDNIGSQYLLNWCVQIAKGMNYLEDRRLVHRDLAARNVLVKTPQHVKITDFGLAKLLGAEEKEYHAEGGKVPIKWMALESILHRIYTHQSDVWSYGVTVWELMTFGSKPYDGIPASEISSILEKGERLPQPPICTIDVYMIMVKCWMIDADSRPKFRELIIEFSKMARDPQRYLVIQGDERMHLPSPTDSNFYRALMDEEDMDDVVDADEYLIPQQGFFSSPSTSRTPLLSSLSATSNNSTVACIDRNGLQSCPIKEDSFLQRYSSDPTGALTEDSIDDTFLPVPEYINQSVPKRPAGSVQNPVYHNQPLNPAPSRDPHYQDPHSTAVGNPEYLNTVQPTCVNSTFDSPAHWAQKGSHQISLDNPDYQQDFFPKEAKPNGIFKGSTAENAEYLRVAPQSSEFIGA

Molecule | GI50
COc1cc2ncnc(Nc3cccc(Cl)c3F)c2cc1OC(=O)N1CCN(C)C[C@H]1C [Compound 38] | > 3330 nM
C=CC(=O)Nc1cccc(Oc2nc(Nc3ccc(N4CCN(C)CC4)cc3)nc3ccsc23)c1 [Compound 36] | 454 nM
C=CC(=O)Nc1cc(Nc2nccc(-c3cn(C4CC4)c4ccccc34)n2)c(OC)cc1N(C)CCN(C)C [Compound 30] | 239 nM
C=CC(=O)Nc1cc(Nc2nccc(-c3cn(C)c4ccc(F)cc34)n2)c(OCC)cc1N(C)CCNC [Compound 27] | 195 nM
C=CC(=O)Nc1cc(Nc2nccc(-c3cn(C)c4ccc(F)cc34)n2)c(OCC)cc1N(C)CCN(C)C [Compound 22] | 248 nM
